# Test system: PANC-1
# PROCEDURE SUMMARY: Phototoxicity against human PANC-1 cells assessed as reduction in cell viability incubated for 3 hrs followed by 525 nm green-light irradiation for 15 mins and measured after overnight incubation by MTT assay
# Type: functional, cell-based
# ASSAY CONTEXT: PANC-1, light or radiation study
READOUT NAME: pIC50
Answers are plain numbers, as −log10 of the molar value.

Task: What measured pIC50 goes with "Nc1c(Br)cc2c3c(cccc13)C(=O)C(Br)=C2" ?
Output: 6.78

---

# PROCEDURE SUMMARY: Absorption property of the compound in PBS containing 1% DMSO assessed as maximum absorption wavelength at pH 7.4 by UV-visible spectrophotometric method
# Type: physicochemical
# ASSAY CONTEXT: buffer
Consider the following molecules; for each one, report its Activity.
Answer with the number, then the unit.

| SMILES CODE | Activity |
| --- | --- |
| Nc1cc2c3c(cccc3c1)C(=O)C=C2 | 457 nm |
| COc1ccc2cccc3c2c1C(=O)C=C3 | 418 nm |
| Nc1c(Br)cc2c3c(cccc13)C(=O)C(Br)=C2 | 546 nm |
| O=C1C=Cc2cccc3ccc(O)c1c23 | 439 nm |
| Nc1ccc2c3c(cccc13)C(=O)C=C2 | 548 nm |

Provide reported Activity for each item, in the same order as listed.
1. COc1ccc2cccc3c2c1C(=O)C(Br)=C3
2. Nc1cc2c3c(c(O)ccc3c1)C(=O)C=C2
3. Nc1cc2c3c(cccc3c1Br)C(=O)C=C2

Output:
1. 427 nm
2. 485 nm
3. 458 nm
